Test system: UO-31
assay procedure: NCI tumour cell line growth inhibition, 48 h
Active and inactive are the calls of the source. No stated cut-off is given here; in the data, active = GI50 up to about 1.1 µM and inactive = higher.
endpoint name: GI50

>>> observed_value("CC(C)(C)OC1=C(OC(C)(C)C)C(O)(c2ccccc2)C1=O (stereo not drawn)")
"> 100 µM (inactive)"
>>> observed_value("Cc1ccc(S(=O)(=O)C(CC(=O)N2CCCC2)C(=O)c2ccccc2)cc1 (stereo not drawn)")
"> 100 µM (inactive)"
>>> observed_value("c1csc(-c2nnc(C34CC5CC(CC(C5)C3)C4)o2)c1")
"3.96 µM (inactive)"
>>> observed_value("O=C(CSc1nnc(Cc2ccccc2)o1)Nc1ccccc1")
"> 100 µM (inactive)"
>>> observed_value("CCOC(=O)/C(C#N)=C/Nc1c(C)n(C)n(-c2ccccc2)c1=O")
"> 100 µM (inactive)"
>>> observed_value("CC1=NN(C(=O)c2ccc(Cl)cc2)C(=O)/C1=C/c1ccco1")
"> 100 µM (inactive)"
>>> observed_value("CCOC(=O)C(=O)/C(=C\\NC(=S)Nc1ccccc1Cl)C(=O)OCC")
"> 100 µM (inactive)"
>>> observed_value("C/C(=C\\C(=O)O)C(=O)N(C)c1ccccc1I")
"> 100 µM (inactive)"
>>> observed_value("CC(=O)N1CCC2(c3ccccc3N(C(C)=O)C2c2ccc(O)cc2)C1C(=O)O (stereo not drawn)")
"> 100 µM (inactive)"
>>> observed_value("CC(C)(C)c1ccc2c(c1)C#Cc1cc(C(C)(C)C)ccc1OCCCO2")
"> 100 µM (inactive)"
>>> observed_value("O=C1NC(=O)C(Cc2ccccc2)(c2cccnc2)N1 (stereo not drawn)")
"> 100 µM (inactive)"
>>> observed_value("S=C(Nc1ccccc1)N1N=C2c3ccccc3CC[C@H]2[C@@H]1c1ccccc1")
"13.2 µM (inactive)"
>>> observed_value("Fc1ccccc1C1SCc2nc3ccccc3n21 (stereo not drawn)")
"24.8 µM (inactive)"
>>> observed_value("Oc1cc(-c2ccccc2)nc2cc3c(cc12)OCO3")
"13.1 µM (inactive)"
>>> observed_value("C(=N\\Cc1ccccc1)/c1ccccc1-c1ccccc1/C=N/Cc1ccccc1")
"> 10 µM (inactive)"
>>> observed_value("N#CCCN(CCC#N)c1ccc(C(/N=N/c2ccc(Cl)cc2)=N\\c2ccccc2)cc1")
"8.91 µM (inactive)"
>>> observed_value("O=C1Oc2cc3c(c4cccc1c24)OCN(c1ccccc1)C3")
"> 100 µM (inactive)"
>>> observed_value("CCN(CC)c1ccc(C(=O)c2ccccc2C(=O)O)c(O)c1")
"> 100 µM (inactive)"
>>> observed_value("COc1ccc(SCc2cc(OC)ccc2OC)cc1")
"27.6 µM (inactive)"
>>> observed_value("O=C(c1ccccc1)c1ccc(OCCOc2ccc(Nc3ccccc3)cc2)cc1")
"> 100 µM (inactive)"
>>> observed_value("O=C(O)c1ccc2c(c1C(=O)O)C(=O)OC2(c1ccc(O)cc1)c1ccc(O)cc1")
"> 100 µM (inactive)"
>>> observed_value("N=C(N)N/N=C(/c1ccccc1)c1ccc(O)cc1O")
"46.1 µM (inactive)"
>>> observed_value("O=C1Oc2ccccc2C(=O)/C1=C/N1C(=O)N/C(=C\\c2cccc(O)c2)C1=O")
"29.5 µM (inactive)"
